Data origin: ChEMBL document CHEMBL1201862

molecular target: Induced myeloid leukemia cell differentiation protein Mcl-1 (Homo sapiens, UniProt Q07820); assay type: functional
Sequence (Q07820 whole entry): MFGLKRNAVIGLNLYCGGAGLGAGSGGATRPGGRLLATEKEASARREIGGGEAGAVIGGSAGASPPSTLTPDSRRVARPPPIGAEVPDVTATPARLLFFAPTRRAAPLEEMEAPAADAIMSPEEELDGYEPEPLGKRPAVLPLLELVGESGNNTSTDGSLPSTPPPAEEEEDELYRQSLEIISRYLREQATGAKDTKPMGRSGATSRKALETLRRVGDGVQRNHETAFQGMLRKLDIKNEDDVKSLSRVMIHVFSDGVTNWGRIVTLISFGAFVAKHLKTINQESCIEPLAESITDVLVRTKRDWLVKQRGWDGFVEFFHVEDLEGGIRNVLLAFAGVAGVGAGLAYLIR
The source made the active and inactive calls.
Measured IC50 of individual entries
quantity.name: IC50

1) CCOc1cc(/C=N/Nc2nc(-c3cccs3)c(NC(C)=O)s2)ccc1O
3510 nM (active)
2) CCN(c1ccc(NC(=O)COC(=O)c2cccs2)cc1)C(C)C
1400 nM (not active)
3) O=C1/C(=C\c2ccc(O)cc2)SC(=S)N1/N=C/c1ccc(O)cc1
2480 nM (active)
4) N=c1oc2cc(O)ccc2cc1C(=O)Nc1nc2ccccc2s1
3210 nM (active)

----------
molecular target: Carboxy-terminal domain RNA polymerase II polypeptide A small phosphatase 1 (Homo sapiens); test: CTDSP1 inhibitors, concentration-response, biochemical, absorbance readout, ultra-high-throughput screen actives (AID 540297); type: functional
Sequence (Q9GZU7 whole entry, the tested form may be a part): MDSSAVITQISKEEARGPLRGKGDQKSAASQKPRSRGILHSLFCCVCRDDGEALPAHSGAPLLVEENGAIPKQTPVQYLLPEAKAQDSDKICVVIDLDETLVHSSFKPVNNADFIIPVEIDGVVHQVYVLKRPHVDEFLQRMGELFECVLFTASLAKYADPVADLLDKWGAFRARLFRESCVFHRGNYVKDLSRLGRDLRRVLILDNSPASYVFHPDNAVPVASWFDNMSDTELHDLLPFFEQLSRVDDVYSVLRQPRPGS
The source made the active and inactive calls.
Outcome codes: active, inactive

1. O=C(NCc1ccc(F)cc1)c1c2c(nc3ccccc13)CCC2
active
2. CC1CCC(NC(=O)Cn2c(=O)oc3cc(S(=O)(=O)N4CCCC4)ccc32)CC1 (stereo unspecified)
active
3. O=C(COc1ccc(-n2cnnn2)cc1)Nc1cccc(Cl)c1Cl
active
4. O=C(N/N=C/c1ccc(OC(=O)c2cccs2)cc1)c1ccc(F)cc1
inactive
5. CN1C(=O)/C(=C2\SC(=S)N(CCCCCC(=O)O)C2=O)c2ccccc21
active
6. CCCc1n(CC(O)COC2CCCCC2)c2ccccc2[n+]1C (stereo unspecified)
active
7. CCCCn1c(SCC(=O)NCc2ccco2)nnc1-c1ccoc1C
active
8. CCOc1cc(/C=N/NC(=O)CSc2nnc(C)s2)ccc1OCc1ccccc1Cl
active
9. COc1ccc(NC(=O)/C(C#N)=C\c2ccc(OCc3ccc(C(=O)O)cc3)c(OC)c2)cc1
active
10. CC(O)/C=C/c1cccc[n+]1C (stereo unspecified)
active
11. Cn1c(SCC(=O)NC(=O)NCc2ccco2)nnc1-c1ccccc1
active

----------
molecular target: Low molecular weight phosphotyrosine protein phosphatase (Homo sapiens); type: functional; details: read-out: IC50_Mean;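 further: Dose-response confirmation assay measuring inhibition of LMPTP enzyme activity by fluorescence intensity read-out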
Sequence (P24666 whole entry): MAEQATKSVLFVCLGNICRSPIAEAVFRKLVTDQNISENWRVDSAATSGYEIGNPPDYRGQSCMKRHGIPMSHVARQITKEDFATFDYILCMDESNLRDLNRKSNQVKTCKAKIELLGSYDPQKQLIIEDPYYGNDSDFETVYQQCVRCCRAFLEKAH
Calls of active or inactive are those of the source.
Outcome codes: TRUE (active), FALSE (inactive)

1. Cn1c(CCN2CCN(c3ccccn3)CC2)nc2cc(NC(=O)COc3ccc([N+](=O)[O-])cc3)ccc21
TRUE
2. CCCCCOc1ccc(C2C(C(=O)c3ccc(C)o3)=C(O)C(=O)N2c2cc(C)on2)cc1 (centres undefined)
TRUE
3. COc1ccc(NC(=O)/C(C#N)=C\c2ccc(OCc3ccc(C(=O)O)cc3)c(OC)c2)cc1
FALSE
4. CC1C(=O)N(Cc2cn(Cc3ccco3)nn2)CCS(=O)(=O)N1Cc1ccc(-c2cccnc2)cc1 (centres undefined)
TRUE

----------
Measured EC50 of individual entries
system: BJ; experiment: BJ-TERT fibroblast viability loss – cell-based, RAS-independent, luminescence, dose response (AID 1933); assay type: functional; conditions: Homo sapiens
The source made the active and inactive calls.
quantity.name: EC50

1. Nc1nonc1-n1nnc(C(=O)N/N=C/c2cc(Cl)ccc2O)c1CN1CCCCCC1
24.9 µM (active)
2. CC[n+]1c(/C=C/N(C)c2ccccc2)n(-c2ccccc2)c2ccc(-c3nc4ccccc4s3)cc21
2.49 µM (inconclusive)
3. CC(=O)Nc1ccc(NC(=O)CN(c2cccc([N+](=O)[O-])c2)S(C)(=O)=O)cc1
> 150 µM (not active)
4. C/C(=N\NC(=O)c1ccccc1F)c1ccccn1
12 µM (inconclusive)

----------
Biological target: UniProtKB Q9XUB2
Sequence (Q9XUB2 whole entry): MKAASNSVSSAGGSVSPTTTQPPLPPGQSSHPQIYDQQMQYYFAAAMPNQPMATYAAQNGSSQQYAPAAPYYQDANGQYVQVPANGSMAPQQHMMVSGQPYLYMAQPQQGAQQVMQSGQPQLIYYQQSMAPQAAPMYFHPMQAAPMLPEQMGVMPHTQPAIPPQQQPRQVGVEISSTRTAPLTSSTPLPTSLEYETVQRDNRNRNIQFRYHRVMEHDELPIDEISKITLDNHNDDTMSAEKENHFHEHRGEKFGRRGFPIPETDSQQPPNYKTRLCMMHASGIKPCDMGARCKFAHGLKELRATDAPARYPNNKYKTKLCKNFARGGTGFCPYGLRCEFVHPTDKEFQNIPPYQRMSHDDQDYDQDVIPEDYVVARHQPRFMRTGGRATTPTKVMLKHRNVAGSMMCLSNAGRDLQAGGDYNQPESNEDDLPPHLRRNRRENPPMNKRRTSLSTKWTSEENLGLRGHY
Test: potency of MEX-5 RNA-binding blockers – biochemical, C. elegans, fluorescence polarization, dose response (AID 1960)
Active and inactive are the calls of the source.
quantity.name: EC50

1. N=C1c2ccccc2CN1NC(=O)CC12CC3CC(CC(C3)C1)C2
> 300 µM (not active)
2. CC(C)c1nnc(N2C(=O)C(O)=C(C(=O)c3cccs3)C2c2ccccc2)s1 (configuration not stated)
4.38 µM (inconclusive)
3. CN(C)c1cccc2c1c(NS(=O)(=O)c1cn(C)cn1)nn2C
32.5 µM (active)
4. N#CC1=C(N)Oc2ccc3ccc(O)cc3c2C1c1ccsc1 (configuration not stated)
11 µM (inconclusive)
5. COC(=O)c1ccc(-n2c(CCC(=O)O)ccc2-c2ccccc2)cc1
> 300 µM (not active)
6. COC(=O)c1ccccc1NCc1cc(=O)oc2cc(O)c(O)cc12
18.4 µM (inconclusive)
7. CN(C)c1ccc(/C=C2\N=C(C(C)(C)C)OC2=O)cc1
22.3 µM (inconclusive)
8. CC(=O)Nc1ccc(NC(=O)C(C)OC(=O)/C(C#N)=C/c2ccc(N(C)C)cc2)cc1 (configuration not stated)
86.3 µM (inconclusive)
9. O=c1oc2ccc(Cl)cc2nc1/C=C(\O)c1ccco1
> 300 µM (not active)
10. COc1ccc(/C=C/c2nc3sc4c(c3c(=O)o2)CCC4)cc1
125 µM (inconclusive)
11. Cc1nn(C(C)C(=O)N2CCOCC2)c(=O)c2nn(-c3ccccc3)c(C)c12 (configuration not stated)
> 300 µM (not active)
12. CCc1ccc(NC(=O)/C(C#N)=C/c2cc3ccc(C)cc3nc2N2CCOCC2)cc1
113 µM (active)

----------
target: Troponin, cardiac muscle (Homo sapiens, UniProt P19429+P45379+P63316); assay: Fluorescence-based biochemical high throughput dose response assay for activators of the calcium sensitivity of cardiac Regulated Thin Filaments (RTF). [Related pubchem assays (depositor defined):AID493008, AID493018, AID504382, AID504383]; format: protein-complex assay
Activity calls are given as the source filed them.
Outcome codes: 1 = active, -1 = inactive

1) CC1CN(c2ccc(NS(=O)(=O)c3ccccc3)cc2C(=O)O)CC(C)O1 (stereo not given)
-1
2) CCSC1=N/C(=C\C=C2/Oc3ccccc3N2CC)C(=O)S1
1
3) N#CC1=C(N)Oc2ccc3ccc(O)cc3c2C1c1ccsc1 (stereo not given)
-1
4) CCOC(=O)/C(=C/C1=CC(=C/N(C)C)/C(=O)O1)C(C)=O
1
5) COc1ccc(-c2nn(-c3ccccc3)cc2/C=N/NC(N)=S)cc1OC
-1

----------
tested on: H9c2; experiment: cells; assay type: functional, cell-based; conditions: Rattus norvegicus, H9c2, Myocardium;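 further: cell death induced by hydrogen peroxide oxidative stress; compound pretreatment for 60 min then peroxide exposure for 2 h; potency is for protecting the cells against peroxide damage rather than for killing them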;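 further: confirmatory concentration-response retest of ultra-high-throughput screening hits for modulation of myocardial damage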
Activity calls are given as the source filed them.
Outcome codes: active, inactive

1) CCOc1ccc(C(=O)Nc2cccc(-c3nc4cccnc4o3)c2)cc1Cl
inactive
2) Cc1cc(C(=O)COc2ccccc2C(N)=O)c(C)n1C
inactive
3) Cc1nnc2ccc(-c3cccc(NC(=O)c4ccc(Cl)nc4)c3)nn12
inactive
4) O=C(NCC(=O)N(Cc1cccs1)C(C(=O)NC1CCCCC1)c1ccco1)c1ccco1 (centres undefined)
active

----------
biological target: DNA dC->dU-editing enzyme APOBEC-3A (Homo sapiens, UniProt P31941); assay: Dose Response confirmation of small molecule APOBEC3A DNA Deaminase Inhibitors via a fluorescence-based single-stranded DNA deaminase assay. [Related pubchem assays (depositor defined):AID493011, AID493024]; format: functional
Sequence (P31941 whole entry): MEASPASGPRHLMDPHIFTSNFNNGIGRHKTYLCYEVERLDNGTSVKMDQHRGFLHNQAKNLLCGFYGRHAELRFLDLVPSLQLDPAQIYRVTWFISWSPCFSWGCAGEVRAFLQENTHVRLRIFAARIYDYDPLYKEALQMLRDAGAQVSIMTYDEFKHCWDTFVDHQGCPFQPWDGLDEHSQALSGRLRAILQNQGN
Activity calls are given as the source filed them.
quantity.name: IC50

1) Cc1[nH]c2ccccc2c1/C=C(\C#N)C(=O)NC(C)c1ccccc1 (stereo not given)
1.87 µM (active)
2) COc1ccc(N=Nc2[nH]c3ccc(C)cc3c2O)cc1
8.35 µM (active)
3) COc1ccccc1-c1noc(CSc2nc(C)cc(O)n2)n1
16.6 µM (active)
4) CC(=O)c1ccc[n+](CC(=O)NC(C)c2ccccc2)c1 (stereo not given)
3.57 µM (active)
5) O=C(O)c1ccc(CSc2n[nH]c(-c3ccco3)n2)cc1
9.95 µM (active)

----------
Measured EC50 of individual entries
experiment: DRD fibroblast viability loss – cell-based, non-viral oncogenic, luminescence, dose response (AID 1934); assay type: functional; settings: Homo sapiens
Active and inactive are the calls of the source.
quantity.name: EC50

1) CC(=O)Nc1ccc(NC(=O)CN(c2cccc([N+](=O)[O-])c2)S(C)(=O)=O)cc1
> 150 µM (inconclusive)
2) CC[n+]1c(/C=C/N(C)c2ccccc2)n(-c2ccccc2)c2ccc(-c3nc4ccccc4s3)cc21
3.03 µM (active)
3) CCC1=Nc2cc(C(=O)O)ccc2Sc2ccc(Cl)cc21
> 150 µM (not active)
4) COc1ccc(OC)c(Nc2c3c(nc4ccccc24)CCC3)c1
12.4 µM (active)
